All figures here come from patent US4459290A.

- Test system: Klebsiella pneumoniae KAE
- Procedure Details: MIC, standard agar-dilution assay (Table V)
- Format: cell-based
- Test Conditions: Klebsiella pneumoniae
Where a name gives a salt, the structure may show the parent alone.
Outcome Measure: MIC

// query What value of MIC has been reported for the following compound? CCC1OC(=O)CC(O)C(C)C(OC2OC(C)C(O)C(N(C)C)C2O)C(CC=O)CC(C)C(=O)C=CC(C)=CC1CNC(=O)[C@H](N)c1ccccc1 (single isomer, unassigned) [Compound 12, bis(trifluoroacetate) salt]
// result > 128 µg/mL

// query What value of MIC has been reported for the following compound? CCC1OC(=O)CC(O)C(C)C(OC2OC(C)C(O)C(N(C)C)C2O)C(CC=O)CC(C)C(=O)C=CC(C)=CC1CN (stereo not drawn) [Compound 9, 23-Deoxy-23-amino-OMT]
// result > 128 µg/mL

// query What value of MIC has been reported for the following compound? CCC1OC(=O)CC(O)C(C)C(OC2OC(C)C(O)C(N(C)C)C2O)C(CC=O)CC(C)C(=O)C=CC(C)=CC1CSC(C)=O (stereo not drawn) [Compound 7, 23-Deoxy-23-(acetyl)thio-OMT]
// result > 128 µg/mL
